target: T1, PADI4_C166F (human, UniProt Q9UM07 1-663, C166F); test: SPR; single cycle kinetics; biotinylated PADI4 (wild type or single-residue variant) captured on a Biotin CAPture chip, peptide or peptide analogue as analyte; 50 mM HEPES pH 7.5, 150 mM NaCl, 2 mM DTT, 0.05% Tween-20, 0.1% DMSO; 25 °C; CaCl2 concentration not told for these runs; settings: both partners purified
T1 construct: source: E. coli BL21-DE3, purified (Ni-NTA, S200 SEC), as told for the wild type
T1 sequence (Q9UM07 whole entry C166F): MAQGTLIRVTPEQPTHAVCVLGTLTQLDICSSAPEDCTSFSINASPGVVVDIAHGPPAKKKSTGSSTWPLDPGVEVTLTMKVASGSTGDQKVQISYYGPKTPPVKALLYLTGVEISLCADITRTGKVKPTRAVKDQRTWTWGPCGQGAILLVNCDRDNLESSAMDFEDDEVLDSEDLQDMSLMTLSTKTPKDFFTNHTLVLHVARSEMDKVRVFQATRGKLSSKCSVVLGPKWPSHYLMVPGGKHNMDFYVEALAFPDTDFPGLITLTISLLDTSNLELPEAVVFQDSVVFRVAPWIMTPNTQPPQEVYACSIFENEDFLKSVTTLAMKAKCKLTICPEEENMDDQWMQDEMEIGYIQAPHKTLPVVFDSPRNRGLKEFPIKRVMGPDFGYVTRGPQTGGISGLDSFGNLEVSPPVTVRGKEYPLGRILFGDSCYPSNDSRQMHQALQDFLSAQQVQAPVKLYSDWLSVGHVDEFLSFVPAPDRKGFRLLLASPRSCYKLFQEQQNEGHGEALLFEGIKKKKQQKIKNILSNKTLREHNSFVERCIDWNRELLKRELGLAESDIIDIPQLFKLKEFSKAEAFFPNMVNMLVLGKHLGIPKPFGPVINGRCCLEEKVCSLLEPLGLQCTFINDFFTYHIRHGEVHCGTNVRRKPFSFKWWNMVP
Bridge positions count the residues as written; N and C are the ends. Square brackets hold non-standard residues; d marks the D form.
assay-metric: Kd (nM)

>>> reported_measurement("{CH2CO}-[dY]RDHHYRHPKYCG-NH2 (thioether N-12, cyclic peptide from RaPID selection 1 (10 mM CaCl2); source: synthetic peptide (Fmoc solid-phase synthesis, HPLC purified)) [PADI4_3]")
3
